Each recorded value in this set is attributed to the nanobody polyreactivity screen of Harvey et al. (2022).

assay-overview: yeast display, Sf9 membrane polyspecificity reagent, FACS + sequencing; frameworks hold sequencing errors
measured-attribute: polyreactivity (PSR sort gate)

Worked cases, answers included:
[[record]]
sequence_entry = "QVQLVESGGGLVQAGGSLRLSCAASGIIFSLNTMGWYRQAPGKERELVAAISSSGGSTYYADSVKGRFTISRDNAKNTVYLQMTSLKPEDTAVYYCARRYAPNTSLTFYYWGQGTQVTVSS"
assay_value = "low polyreactivity"

[[record]]
sequence_entry = "QVQLVESGGGLVQAGGSLRLSCAASARIVRKYTMGWFRQAPGKERELVAAISRNGGDTYYADSVKGRFTISRDNAKNTVYLQMHSLKPEDTAVYYCNARTPTDSTHFDYWGQGTQVTVSS"
assay_value = "low polyreactivity"

[[record]]
sequence_entry = "QGQLVESGGGLVQAGGSLRLSCAASGSIFVQNAMGWYRQAPGKEREFVAVINSGDSTNYADSVKGRFTISRDIAKNTVYLQMNSLKADDTAVYYCAVDDVSYYYLRAYNYELSWYGSGLDYWGQGTQVTVSS"
assay_value = "low polyreactivity"

[[record]]
sequence_entry = "QVQLVESGGGLVQAGGSLRLSCAASGITFIDYAMGGYRQAPGKVRELVAAITVRGSTYYADSVKGRFTISRDNAKNTVYLQMNSLKPEDTAVYYCAADTYVAADSPVTGERDSFDYWGQGTQVTVSS"
assay_value = "low polyreactivity"

[[record]]
sequence_entry = "QVQLVESGGGLVQAGGSLRLSCAASGRTFLYNAMGWYRQAPGKERELVAAIRWSGGTTYYADSVKGRFTISRDNAKNTVYLQMNSLKPEDTAVYYCAARWGPYYGGVRYGYWGQGTQVTVSS"
assay_value = "high polyreactivity"


Name the recorded polyreactivity (PSR sort gate) for QVQLVESGGGLVQAGGSLRLSCAASGRTFPYNAMGWYRQAPGKERELVAAISYSGGRTYYADSVKGRFTISRDNAKNTFYLQMNSLKPEDTAVYYCNALGSGREDDYWGQGTQVTVSS . high polyreactivity

Same again, this time with QEQLEESGGGLVQAGGSLRLSCAASGFTLGRYAMGWYIQAPGKERELVAAINSSGGRTYYADSVNGRFTISRDTAKNTVYLQLNSLKPEDTAVYYCATVNVRGPPYDFWGQGTQVTVSS high polyreactivity

Can you handle QVQLVESGGGLVQAGGSLRLSCAASGITFYDYAMGRYRQAPGKERELVAAISGGGITYYADSVKGRFTISRDNAKNTVYLQMNSLKPEDTAVYYCAAVYIAGYGYDYWGQGTQVTVSS next? low polyreactivity

How about this sequence: QVQLVESGGGLVQAGGSLRVSCAASGRTFGYNAMGWYRQAPGKERELVATISWGGGSTYYADSVKVRFTISRDNAKNTVYLQMNSLKPEDTAVYYCAATYWTYPYHYQYKYDYWGQGTQVTVSS high polyreactivity

Let us now turn to QVQLVESGGGLVQAGGSLRLSCAASGLTFSIYAMGWYRQEPGKERELVARITWNSGSTYYADSVKGRFTISRDNAKNTVYLQMNSLKPEDTAVYYCNARFWGSGVGDLWEGVRYDYWGQGTQVTVSS high polyreactivity

Okay, and QVQHVESGGGLVQAGRSLRLTSAASGIIFSGYAIGWYRQAPGKERHLVAAISSRCGGTYYADSVKGRFTISRDNAKNTVYFPLNSLKPEDTALYYCAAKRPACIQYSYYYWGQGTQVTVSS ? high polyreactivity
